# experimental.details: Human HepG2 cell viability assay in 384 well format
# Type: toxicity, cell-based
# Parameters: dose 125 nL, time 70.5 hour; concentration not given beside the values
# test.conditions: HepG2 cells, read-out: Inhibition
measure: cytotoxicity at 70.5 h (%)

[[record]]
compound = "CN(C)c1cc(CNC(=O)Nc2nnc(C3CC3)s2)ccn1"
value_observed = 1.07

[[record]]
compound = "Cc1nc(-c2ccsc2)ccc1C(=O)NCC(C)N1CCOCC1 (stereo not drawn)"
value_observed = -4.37

[[record]]
compound = "Cn1nc(CNC(=O)c2ccc3nsnc3c2)c2c1CCOC2"
value_observed = -4.6

[[record]]
compound = "O=C(NC[C@H]1OC[C@@H](NC(=O)C2CCCC2)[C@@H]1O)c1ccncc1"
value_observed = 13.7

[[record]]
compound = "CCOCCNC(=O)c1cccc(S(=O)(=O)NC[C@@H]2C[C@H](F)CN2)c1"
value_observed = 31.3

[[record]]
compound = "CCN1CCN(C2(C(=O)NC3CCCC3)Cc3ccccc3C2)CC1"
value_observed = -3.96

[[record]]
compound = "COC(=O)c1cccn1C1CCN(Cc2cnc3ccccn23)CC1"
value_observed = 10.2

[[record]]
compound = "Cn1cccc(NC(=O)NCCc2cccc(O)c2)c1=O"
value_observed = 9.38

[[record]]
compound = "CNCC(=O)N1CCCC1c1n[nH]cc1-c1ccccc1F (stereo not drawn)"
value_observed = 0.833

[[record]]
compound = "Cc1nc(C)n(CC2CCCN(Cc3noc(C)n3)C2)n1 (stereo not drawn)"
value_observed = -5.88

[[record]]
compound = "CSCCC(Nc1nc(C)cc(C)n1)C(=O)NC1CCCC1 (stereo not drawn)"
value_observed = -12.6

[[record]]
compound = "Fc1ccc(F)c(CN2CCC(c3n[nH]c4ncccc34)CC2)c1"
value_observed = -7.24

[[record]]
compound = "CCC(=O)Nc1c(C)nn(COc2cccc(F)c2)c1C"
value_observed = -2.04

[[record]]
compound = "Cc1ccc(CNC(CN2CCN(C)CC2)c2ccccc2)cc1C (stereo not drawn)"
value_observed = 35.8

[[record]]
compound = "CN(C)c1cccc(C(=O)Nc2cnn(Cc3ccncc3)c2)c1"
value_observed = -11.3

[[record]]
compound = "CCc1nnc(CS(=O)(=O)c2ccc(C)c(C)c2)n1C"
value_observed = 26.2

[[record]]
compound = "CCN(CC)Cc1cnc2n1CCN(C1CCOC1)CC2 (stereo not drawn)"
value_observed = -1.04

[[record]]
compound = "CCc1nc(C2CCCN2CC(=O)Nc2c(C)nn(C)c2C)no1 (stereo not drawn)"
value_observed = -3.18

[[record]]
compound = "O=C(C1CCCOC1)N1CCN(CC(F)(F)F)c2ccccc21 (stereo not drawn)"
value_observed = -1.7

[[record]]
compound = "COCCN1C(=O)CC[C@]12CC[C@@H](NCc1ccc(OC)cc1)CC2"
value_observed = 0.729

[[record]]
compound = "Cc1nccc(C2CN(C(=O)c3cncnc3)C2)n1"
value_observed = -13.8

[[record]]
compound = "CC(C)(C)c1oc(C(N)=O)cc1CN1CCOC(C(F)(F)F)C1 (stereo not drawn)"
value_observed = 1.68

[[record]]
compound = "O=C(NC1CCN(c2ccc(-c3ccccc3F)nn2)C1)c1cc[nH]n1 (stereo not drawn)"
value_observed = -12.8

[[record]]
compound = "CCn1nc(C)c(CN(CCOC)C(=O)c2cnc(C)nc2O)c1C"
value_observed = -6.8

[[record]]
compound = "CCN1CCC(CNCc2cc(OC)ccc2OC)C1 (stereo not drawn)"
value_observed = 5.64

[[record]]
compound = "CN1[C@@H](CCC(=O)NCc2ccc(F)cc2)CNC(=O)[C@H]2NCC[C@H]21"
value_observed = -2.11

[[record]]
compound = "CCc1nc(N)nc(N2CCCC3(CCN(C)CC3)CC2)c1C"
value_observed = 0.239

[[record]]
compound = "COc1cccc(OCC(=O)NS(=O)(=O)c2cc(F)ccc2F)c1"
value_observed = -5.46

[[record]]
compound = "c1nnc(Nc2cncc(C3CCCN3)n2)s1 (stereo not drawn)"
value_observed = -7.63

[[record]]
compound = "O=C(c1ccc(N2CCCC2)nn1)N1CCc2ccccc21"
value_observed = 0.119

[[record]]
compound = "COCC(=O)N1CCc2nc(NC(C)C)nc(NC(C)C)c2CC1"
value_observed = -0.713

[[record]]
compound = "CC(NC(=O)NCCCNS(C)(=O)=O)c1ccncc1 (stereo not drawn)"
value_observed = 1.41

[[record]]
compound = "COc1cc(C(C)NCc2c[nH]nc2C)ccc1OCCO (stereo not drawn)"
value_observed = 7.95

[[record]]
compound = "CC(OCc1ccccc1)C(=O)NCc1ccc(N(C)C)cc1 (stereo not drawn)"
value_observed = -12.6

[[record]]
compound = "Cn1ccc(C(=O)N2CCCC2c2cc(CCO)[nH]n2)n1 (stereo not drawn)"
value_observed = -1.26

[[record]]
compound = "CC(Cc1cncs1)Nc1ncnc2cccc(F)c12 (stereo not drawn)"
value_observed = 1.5

[[record]]
compound = "Cc1cc(C)n(C2CN(C(=O)CN3C(=O)CSc4ccccc43)C2)n1"
value_observed = 0.11

[[record]]
compound = "O=C(NCC1CC1)C1CN(C(=O)c2cccc(Cl)c2)CC12CCOCC2 (stereo not drawn)"
value_observed = 38.6

[[record]]
compound = "O=C(NCC(F)(F)F)C(c1cccnc1)N1CCCC1 (stereo not drawn)"
value_observed = -5.02

[[record]]
compound = "CC(C)CNC(=O)c1ccc(NC(=O)NC(C)C)cc1Cl"
value_observed = -11.5

[[record]]
compound = "CS(=O)(=O)N(Cc1ccon1)c1ccc(F)cc1"
value_observed = -2.76

[[record]]
compound = "NC(=O)CC1CCN(CC(O)c2ccc(Br)cc2)CC1 (stereo not drawn)"
value_observed = -6.64

[[record]]
compound = "CCCn1cc(CNCC(c2ccc(C)s2)N2CCOCC2)cn1 (stereo not drawn)"
value_observed = 8.59

[[record]]
compound = "N#Cc1cccc(N2CCC3(CC2)Nc2ccccc2NC3=O)n1"
value_observed = -5.8

[[record]]
compound = "CCOCC(=O)NCC(Cc1cccc(F)c1)n1cccc1 (stereo not drawn)"
value_observed = -1.33

[[record]]
compound = "Cc1cnn(C2CN(CC(O)c3ccc(F)cc3)C2)c1 (stereo not drawn)"
value_observed = -5.26

[[record]]
compound = "O=C(c1nc(Cc2c[nH]c3ccccc23)no1)N1CCCCC1"
value_observed = -7.41

[[record]]
compound = "Cc1nccn1C1CCCN(C(=O)c2cccc(OCC(N)=O)c2)C1 (stereo not drawn)"
value_observed = -10.4

